Values were extracted from PubChem BioAssay (NCATS).

- test: High-throughput drug toxicity screening in the BPDCN cell line Gen2.2 (AID 1224824);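 note: cells exposed to compounds for 48 h before reading; 100% = DMSO and 0% = bortezomib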
- assay.conditions: Gen2.2 BPDCN cells; at 45.8 µM (top of the series)
Would you mind telling me the reported cell viability, % of control (lower = more cytotoxic) of each entry?
Give bare numbers, in %.

Look over these answered cases.
Cn1c(CCCC(=O)O)nc2cc(N(CCCl)CCCl)ccc21 : 53.7
COc1ccc2c(c1OC)CN1CCc3cc4c(cc3C1C2)OCO4 (stereo unspecified) : 173
CNC(=O)c1ccc(N2C(=S)N(c3ccc(C#N)c(C(F)(F)F)c3)C(=O)C23CCC3)cc1F : 16.5
CNC(=O)N1N=C(c2ccc(N)cc2)c2cc3c(cc2CC1C)OCO3 (stereo unspecified) : 24.2
CNCC(O)c1ccc(O)cc1 (stereo unspecified) : 145

CN(C)CCc1ccc(O)cc1 has a reported cell viability, % of control (lower = more cytotoxic) of 191
